Reported Kd by item:
# ASSAY_TARGET: T1, recombinant human GM-CSF protein (human, UniProt P04141 18-144)
# T1 construct: Bought recombinant protein (Genscript); also called biotinylated human GM-CSF protein
# T1 sequence (P04141 18-144 limits assumed): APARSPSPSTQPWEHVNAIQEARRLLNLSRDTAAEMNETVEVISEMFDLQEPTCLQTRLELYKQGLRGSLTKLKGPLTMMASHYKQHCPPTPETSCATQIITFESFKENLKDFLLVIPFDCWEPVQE
# PROTOCOL_SUMMARY: SPR Biacore T200, antibody captured by anti-human Fc, GM-CSF as analyte, 25 C, 1:1 model

{"BINDER": "Hu23F4-20 (antibody, V domains shown, Humanized) VH: EVQLVQSGAEVKKPGASVKVSCKASGYTFTSHYLHWVRQAPGQGLEWMGWIFPGDDKTKYNEKFKGRVTMTRDTSISTAYMELSRLRSDDTAVYYCARGTKYLNWNFDVWGQGTTVTVSS VL: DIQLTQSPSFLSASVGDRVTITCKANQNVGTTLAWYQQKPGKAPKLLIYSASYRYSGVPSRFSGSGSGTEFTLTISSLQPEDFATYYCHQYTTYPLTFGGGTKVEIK", "Kd [nM]": 0.142}
{"BINDER": "Hu50C5-23 (antibody, V domains shown, Humanized; also called 35230Hu50C5-23) VH: EVQLVQSGAEVKKPGSSVKVSCKASGYIFTPYSIHWVRQAPGQGLEWIGYINPSTGYIEYNQHFKDRTTLTADKSTSTAYMELRSLRSEDTAVYYCARGGDYEGYFDYWGQGTTVTVSS VL: DIQMTQSPSSLSASVGDRVTITCRLNENIYSFLAWYQQKPGKAPKLLVYNAETLAEDVPSRFSGSGSGTDFTLTISSLQPEDFATYYCQQHYGTPYTFGGGTKVEIK", "Kd [nM]": 0.0276}
